tested target: Mitogen-activated protein kinase 7 (Homo sapiens)
assay text: ERK5 transactivation activators in reporter cells, primary screen, cell-based, HTS (AID 1508626);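 note: luciferase driven by Gal4-ERK5 fusion binding five Gal4 sites before minimal TATA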
condition notes: HeLa Gal4-ERK5 transactivation, 18 h, at 5 µM, stronger effect = higher value
The source made the active and inactive calls.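 Rule for the calls: active = luciferase signal above three times the same-plate solvent-only control wells; inactive = the rest.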
measurement name: luciferase signal

Value of measured luciferase signal for the entry CC(C)=CCCC1(C)C=Cc2c(O)c3c(c(CC=C(C)C)c2O1)OC12C(CC4CC1C(C)(C)OC2(C/C=C(/C)C(=O)O)C4O)C3=O (centres undefined) : 96 AU (inactive)

Value of measured luciferase signal for the entry CNC(C)[C@H](O)c1ccccc1 (some centres undefined) : 52 AU (inactive)

Value of measured luciferase signal for the entry `CN(CC[C@H](N)CC(=O)N[C@H]1C=C[C@H](n2ccc(N)nc2=O)O[C@@H]1C(=O)O)C(=N)N` : 80 AU (inactive)

Value of measured luciferase signal for the entry Clc1ccc(COC(Cn2ccnc2)c2ccc(Cl)cc2Cl)c(Cl)c1 (centres undefined) : 48 AU (inactive)

Value of measured luciferase signal for the entry `CC(=O)O[C@H]1C[C@H](O[C@H]2[C@@H](O)C[C@H](O[C@H]3[C@@H](O)C[C@H](O[C@H]4CC[C@@]5(C)[C@H](CC[C@@H]6[C@@H]5C[C@@H](O)[C@]5(C)[C@@H](C7=CC(=O)OC7)CC[C@]65O)C4)O[C@@H]3C)O[C@@H]2C)O[C@H](C)[C@H]1O[C@@H]1O[C@H](CO)[C@@H](O)[C@H](O)[C@H]1O` : 44 AU (inactive)

Value of measured luciferase signal for the entry `COP(=S)(OC)SCn1nnc2ccccc2c1=O` : 64 AU (inactive)

Value of measured luciferase signal for the entry `CC(C)[C@@H]1NC(=O)[C@H](C)OC(=O)[C@@H](C(C)C)NC(=O)[C@@H](C(C)C)OC(=O)[C@H](C(C)C)NC(=O)[C@H](C)OC(=O)[C@@H](C(C)C)NC(=O)[C@@H](C(C)C)OC(=O)[C@H](C(C)C)NC(=O)[C@H](C)OC(=O)[C@@H](C(C)C)NC(=O)[C@@H](C(C)C)OC1=O` : 36 AU (inactive)

Value of measured luciferase signal for the entry `COP(=S)(OC)Oc1ccc([N+](=O)[O-])cc1` : 72 AU (inactive)

Value of measured luciferase signal for the entry CCC1(C2=NCCN2)Cc2ccccc2O1 (centres undefined) : 140 AU (inactive)

Value of measured luciferase signal for the entry `NC(N)=NOCC[C@H](N)C(=O)O` : 84 AU (inactive)

Value of measured luciferase signal for the entry `COc1c2c(c(CC=C(C)C)c3oc(=O)c(-c4ccc(O)cc4)c(O)c13)OC(C)(C)C=C2` : 60 AU (inactive)

Value of measured luciferase signal for the entry CC(=O)C1CCC2C3CCC4C[C@H](O)CCC4(C)C3C[C@H](O)C12C (some centres undefined) : 32 AU (inactive)

Value of measured luciferase signal for the entry `CC[C@@H](C)C(=O)O[C@H]1[C@H](O)[C@H]2[C@@H](CN3C[C@@H](C)CC[C@H]3[C@@]2(C)O)[C@@H]2C[C@]34O[C@]5(O)[C@@H](OC(=O)[C@@](C)(O)CC)CC[C@@]3(C)[C@@H]5[C@@H](OC(C)=O)[C@@H](OC(C)=O)[C@H]4[C@@]21O` : 108 AU (inactive)

Value of measured luciferase signal for the entry `CCN1C[C@]2(COC)[C@H](O)C[C@H](OC)[C@]34C1[C@H]([C@H](OC)[C@H]23)[C@]1(OC(C)=O)[C@H]2[C@@H](OC(=O)c3ccccc3)[C@](O)(C[C@H]24)[C@@H](OC)[C@@H]1O` : 16 AU (inactive)
